# credit: patent US9999622B2

IC50 reference
# target or test system: JAK3 (Homo sapiens, UniProt P52333)
# Construct: purchased Carna Biosciences, Inc
# Sequence (P52333 whole entry): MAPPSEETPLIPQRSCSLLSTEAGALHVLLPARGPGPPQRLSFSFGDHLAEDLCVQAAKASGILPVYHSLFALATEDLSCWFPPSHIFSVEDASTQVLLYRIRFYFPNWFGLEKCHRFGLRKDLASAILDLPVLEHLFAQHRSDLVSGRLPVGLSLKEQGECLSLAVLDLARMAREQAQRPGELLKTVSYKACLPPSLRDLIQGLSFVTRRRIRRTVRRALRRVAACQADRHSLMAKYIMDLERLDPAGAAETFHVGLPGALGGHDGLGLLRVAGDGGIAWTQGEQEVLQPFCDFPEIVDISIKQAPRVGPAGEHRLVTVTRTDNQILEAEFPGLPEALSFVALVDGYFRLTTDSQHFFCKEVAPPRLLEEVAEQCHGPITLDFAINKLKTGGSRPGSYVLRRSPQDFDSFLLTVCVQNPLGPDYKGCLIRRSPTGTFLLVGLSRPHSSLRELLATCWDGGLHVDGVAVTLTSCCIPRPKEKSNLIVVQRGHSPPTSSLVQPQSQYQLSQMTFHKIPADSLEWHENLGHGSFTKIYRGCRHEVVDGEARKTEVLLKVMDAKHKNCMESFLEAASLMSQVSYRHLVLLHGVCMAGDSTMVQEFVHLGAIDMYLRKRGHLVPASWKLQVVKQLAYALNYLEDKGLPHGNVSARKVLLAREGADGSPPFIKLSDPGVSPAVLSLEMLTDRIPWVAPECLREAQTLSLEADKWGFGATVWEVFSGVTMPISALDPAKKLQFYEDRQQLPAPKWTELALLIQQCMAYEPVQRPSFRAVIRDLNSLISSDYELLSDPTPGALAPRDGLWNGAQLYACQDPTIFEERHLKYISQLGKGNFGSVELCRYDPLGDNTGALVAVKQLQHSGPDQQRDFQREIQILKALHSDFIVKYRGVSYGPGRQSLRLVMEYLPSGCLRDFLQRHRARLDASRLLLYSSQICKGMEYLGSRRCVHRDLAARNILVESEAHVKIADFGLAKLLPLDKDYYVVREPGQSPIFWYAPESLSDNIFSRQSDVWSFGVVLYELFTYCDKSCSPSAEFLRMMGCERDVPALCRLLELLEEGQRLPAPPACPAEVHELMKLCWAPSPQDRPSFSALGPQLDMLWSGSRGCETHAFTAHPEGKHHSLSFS
# test summary: JAK tyrosine kinase inhibitory activity in the presence of 1 mM ATP (ELISA), JAK3
# Format: biochemical
Counter-ions that a name gives are not always drawn.
Note: unit nM is implicit; provide only the numeric part.

Examples with their reported IC50 follow.
compound | target or test system | unit of measurement | number
COC(=O)NC1CCN(C(=O)c2cc(N[C@H](C)C(C)C)nc(-c3cnn4ccsc34)n2)CC1 [Example 24, hydrochloride] | JAK3 (Homo sapiens, UniProt P52333) | nM | 4200
CCS(=O)(=O)NC1CCN(C(=O)c2cc(N[C@@H](C)C3CC3)nc(-c3cnn4ccsc34)n2)CC1 | JAK3 (Homo sapiens, UniProt P52333) | nM | 2100
CCC(CC)Nc1cc(C(=O)N2CCC(O)CC2)nc(-c2cnn3ccsc23)n1 [Example 81, hydrochloride] | JAK3 (Homo sapiens, UniProt P52333) | nM | 3300

Bench note: what IC50 did CC(=O)NC1CCN(C(=O)c2cc(N[C@@H](C)C(C)(C)C)nc(-c3cnn4ccsc34)n2)CC1 show? 3000

Suppose we examine the compound C[C@H](Nc1cc(C(=O)N2CCC(NC(=O)C3CC3)CC2)nc(-c2cnn3ccsc23)n1)C1CC1 [Example 1, hydrochloride] ; what IC50 value has been reported? 3400

Which IC50 value belongs to C[C@@H](C1CC1)N(C)c1cc(C(=O)N2CCC(NC(=O)C3CC3)CC2)nc(-c2cnn3ccsc23)n1 [Example 33, hydrochloride] ? 1700

Fill in: IC50 of C[C@@H](Nc1cc(C(=O)N2CCC(NC(=O)C3CCCCC3)CC2)nc(-c2cnn3ccsc23)n1)C(C)(C)C is ___ 1700

Given the compound COC(=O)NC1CCN(C(=O)c2cc(NC3(C#N)CC3)nc(-c3cnn4ccsc34)n2)CC1 , what is its reported IC50? 6600

Please report the recorded IC50 for C[C@H](Nc1cc(C(=O)N2CCC(NC(=O)c3ccncc3)CC2)nc(-c2cnn3ccsc23)n1)C1CC1 . 1800

Quick check: IC50 of CCOC(=O)NC1CCN(C(=O)c2cc(N[C@H](C)C3CC3)nc(-c3cnn4ccsc34)n2)CC1 [Example 73] ? 2200

====

# target or test system: JAK3 (Homo sapiens)
# Construct: purchased Carna Biosciences, Inc
# test summary: JAK tyrosine kinase inhibitory activity in the presence of 1 mM ATP (ELISA), JAK3
# Format: biochemical
Structures can show the parent of a compound that is named as a salt.
readout name: IC50

Some compounds with known IC50 results, for comparison:
compound | readout name | result
O=C(NC1CCN(C(=O)c2cc(OCC3CC3)nc(-c3cnn4ccsc34)n2)CC1)C1CC1 | IC50 | > 10000 nM
CCOC(=O)NC1CCN(C(=O)c2cc(N[C@@H]3CCN(C(=O)CC#N)C3)nc(-c3cnn4ccsc34)n2)CC1 | IC50 | > 10000 nM
CCOC(=O)NC1CCN(C(=O)c2cc(N[C@H](C)C3CC3)nc(-c3cnn4ccsc34)n2)CC1 [Example 74, hydrochloride] | IC50 | 2600 nM

// returns reported IC50 for input N#CC1(Nc2cc(C(=O)N3CCC(O)CC3)nc(-c3cnn4ccsc34)n2)CC1 [Example 117, hydrochloride] 5700 nM

Would you mind telling me what IC50 value was observed for COC(=O)NC1CCN(C(=O)c2cc(N[C@@H](C)C(C)(C)C)nc(-c3cnn4ccsc34)n2)CC1 ? 3700 nM

Given the entry C[C@H](Nc1cc(C(=O)N2CCC(NC(=O)OCC(F)F)CC2)nc(-c2cnn3ccsc23)n1)C1CC1 , report its measured IC50. 1400 nM

Fill in: IC50 of COC(=O)NC1CCN(C(=O)c2cc(N[C@@H]3CCNC3)nc(-c3cnn4ccsc34)n2)CC1 [Example 150, dihydrochloride] is ___ > 10000 nM

Data request, read-out IC50, for CC(C)OC(=O)NC1CCN(C(=O)c2cc(N[C@@H](C)C3CC3)nc(-c3cnn4ccsc34)n2)CC1 > 10000 nM
